These data points were gathered from patent US9078902B2.

Target Desc: c-Src kinase (Homo sapiens, UniProt P12931)
Construct: purchased Millipore (KinaseProfiler Service); also Reaction Biology Corp. (Kinase HotSpot)
Sequence (P12931 whole entry): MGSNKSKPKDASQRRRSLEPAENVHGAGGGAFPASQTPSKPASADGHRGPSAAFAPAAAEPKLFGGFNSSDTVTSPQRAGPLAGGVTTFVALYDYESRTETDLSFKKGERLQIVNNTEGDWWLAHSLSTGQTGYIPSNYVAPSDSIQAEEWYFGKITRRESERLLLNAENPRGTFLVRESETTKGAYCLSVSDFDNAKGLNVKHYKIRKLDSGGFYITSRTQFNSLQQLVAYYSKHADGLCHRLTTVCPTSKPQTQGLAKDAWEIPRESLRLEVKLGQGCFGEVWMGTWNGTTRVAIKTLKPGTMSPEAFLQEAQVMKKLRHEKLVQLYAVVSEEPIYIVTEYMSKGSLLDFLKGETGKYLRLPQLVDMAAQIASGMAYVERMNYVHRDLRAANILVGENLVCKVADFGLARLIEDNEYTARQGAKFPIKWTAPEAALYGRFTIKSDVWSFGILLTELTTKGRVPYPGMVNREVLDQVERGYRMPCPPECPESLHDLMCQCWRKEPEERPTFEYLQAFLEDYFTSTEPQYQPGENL
Assay Summary: c-Src kinase assay (KinaseProfiler / Kinase Hotspot)
Type: biochemical
Condition Info: read-out: % Inhibition cSrc
Procedure: This example illustrated c-Src kinase, Aurora-A kinase, Flt3 kinase, Ret kinase and TrkA Kinase Assays of selected Compounds from this invention (referred to Daniele Fancelli et al, J. Med. Chem., 2006, 49 (24), pp 7247-7251). […] Also Kinase Hotspot SM kinase assay was used to test the compounds for IC50 or % inhibitions (Reaction Biology Corp.). Inhibitor IC50 values were determined by titration of compound at the optimal kinase concentration (Kinase EC50).
Assay Readout: inhibition at 1 µM

Consider the following illustrative entries.
CN1CCN(c2nc(Nc3cc(-c4ccco4)[nH]n3)nc(N(C)c3ccccc3)n2)CC1 :: 50 to 90%
CN1CCN(c2nc(Nc3cc(-c4ccco4)[nH]n3)nc(Sc3ccc(Cl)c(Cl)c3)n2)CC1 :: < 50%
CN1CCN(c2nc(Nc3cc(-c4ccccc4)[nH]n3)nc(Sc3ccc(NC(=O)C4CC4)cc3)n2)CC1 :: < 50%

Report measured inhibition at 1 µM; entry is `CN1CCN(c2nc(Nc3cc(-c4ccco4)[nH]n3)nc(Oc3ccccc3)n2)CC1`
50 to 90%

Fill in reported inhibition at 1 µM for this entry: `CCc1nc(Nc2cc(-c3ccco3)[nH]n2)nc(Sc2ccc(NC(=O)C3CC3)cc2)n1`
< 50%

Annotate the compound `CN1CCN(c2nc(Nc3cc(-c4ccco4)[nH]n3)nc(Sc3ccc(O)cc3)n2)CC1` with its measured inhibition at 1 µM.
50 to 90%

###

Target Desc: Ret kinase (Homo sapiens, UniProt P07949)
Construct: purchased Millipore (KinaseProfiler Service); also Reaction Biology Corp. (Kinase HotSpot)
Sequence (P07949 29-1114): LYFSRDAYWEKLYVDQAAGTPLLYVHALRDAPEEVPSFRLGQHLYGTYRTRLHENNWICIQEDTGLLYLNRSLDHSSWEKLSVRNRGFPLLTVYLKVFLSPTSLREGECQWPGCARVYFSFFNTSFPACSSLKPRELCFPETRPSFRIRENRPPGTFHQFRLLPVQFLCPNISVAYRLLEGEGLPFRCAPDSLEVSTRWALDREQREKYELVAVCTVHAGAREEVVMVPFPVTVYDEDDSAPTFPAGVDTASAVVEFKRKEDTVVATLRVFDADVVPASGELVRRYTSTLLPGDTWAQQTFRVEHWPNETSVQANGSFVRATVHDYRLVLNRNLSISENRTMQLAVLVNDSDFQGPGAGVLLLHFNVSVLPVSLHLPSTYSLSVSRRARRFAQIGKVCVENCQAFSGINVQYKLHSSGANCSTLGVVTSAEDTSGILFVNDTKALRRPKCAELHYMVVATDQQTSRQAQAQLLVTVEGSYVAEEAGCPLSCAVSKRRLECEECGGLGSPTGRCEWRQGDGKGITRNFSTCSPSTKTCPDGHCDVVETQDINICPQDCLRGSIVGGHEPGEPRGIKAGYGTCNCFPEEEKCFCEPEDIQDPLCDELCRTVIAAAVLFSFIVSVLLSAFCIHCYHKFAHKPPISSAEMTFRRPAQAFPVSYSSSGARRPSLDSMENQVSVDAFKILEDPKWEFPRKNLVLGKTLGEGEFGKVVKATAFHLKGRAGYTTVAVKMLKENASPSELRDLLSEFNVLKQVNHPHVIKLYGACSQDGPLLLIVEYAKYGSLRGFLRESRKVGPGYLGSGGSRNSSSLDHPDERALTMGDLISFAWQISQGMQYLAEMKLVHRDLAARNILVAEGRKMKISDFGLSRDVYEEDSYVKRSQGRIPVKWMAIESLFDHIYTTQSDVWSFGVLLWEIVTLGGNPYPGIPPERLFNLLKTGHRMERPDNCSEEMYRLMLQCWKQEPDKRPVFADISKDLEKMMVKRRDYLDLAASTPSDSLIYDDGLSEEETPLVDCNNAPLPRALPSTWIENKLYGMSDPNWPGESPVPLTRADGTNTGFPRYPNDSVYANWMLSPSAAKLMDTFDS
Assay Summary: Ret kinase assay (KinaseProfiler / Kinase Hotspot)
Type: biochemical
Assay Readout: inhibition at 1 µM

CN1CCN(c2nc(Nc3cc(-c4ccco4)[nH]n3)nc(Sc3ccccc3Cl)n2)CC1 [Example 18] :: 50 to 90%

Given the compound CN1CCN(c2nc(Nc3cc(-c4ccco4)[nH]n3)nc(Sc3ccccc3)n2)CC1 [Example 9] , write its reported inhibition at 1 µM.
> 90%

Specify reported inhibition at 1 µM for the compound shown: CN1CCN(c2nc(Nc3cc(-c4ccco4)[nH]n3)nc(Sc3cccc(Cl)c3)n2)CC1 [Example 17]
50 to 90%

Report inhibition at 1 µM for CN1CCN(c2nc(Nc3cc(-c4ccco4)[nH]n3)nc(Sc3cc(Cl)cc(Cl)c3)n2)CC1 [Example 22]
50 to 90%

###

Target Desc: c-Src kinase (Homo sapiens, UniProt P12931)
Construct: purchased Millipore (KinaseProfiler Service); also Reaction Biology Corp. (Kinase HotSpot)
Assay Summary: c-Src kinase assay (KinaseProfiler / Kinase Hotspot)
Assay type: biochemical
Condition Info: read-out: % Inhibition cSrc
Catalogue of molecules with associated inhibition at 1 µM

Worked cases, inhibition at 1 µM given:
CN1CCN(c2nc(Nc3cc(-c4ccco4)[nH]n3)nc(Sc3ccccc3)n2)CC1 [Example 9] :: < 50%
CN1CCN(c2nc(Nc3cc(-c4ccco4)[nH]n3)nc(Sc3cccc(Cl)c3)n2)CC1 [Example 17] :: < 50%
COc1ccc(Sc2nc(Nc3cc(-c4ccco4)[nH]n3)nc(N3CCN(C)CC3)n2)cc1 [Example 24] :: 50 to 90%
CN1CCN(c2nc(Nc3ccccc3)nc(Nc3cc(-c4ccco4)[nH]n3)n2)CC1 [Example 20] :: 50 to 90%

Here's the next entry for you.
Query inhibition at 1 µM for CN1CCN(c2nc(Nc3cc(-c4ccco4)[nH]n3)nc(Sc3ccc(N)cc3)n2)CC1 [Example 10]
< 50%

###

Target Desc: Ret kinase (Homo sapiens)
Construct: purchased Millipore (KinaseProfiler Service); also Reaction Biology Corp. (Kinase HotSpot)
Assay Summary: Ret kinase assay (KinaseProfiler / Kinase Hotspot)
Assay type: biochemical
A collection of compounds and their measured inhibition at 1 µM

The following compounds have reported results that may help.
CN1CCN(c2nc(Nc3cc(-c4ccccc4)[nH]n3)nc(Sc3ccc(NC(=O)C4CC4)cc3)n2)CC1 :: > 90%
CN1CCN(c2nc(Nc3cc(-c4ccco4)[nH]n3)nc(Sc3ccc(OC(F)(F)F)cc3)n2)CC1 :: < 50%
CN1CCN(c2nc(Nc3cc(-c4ccco4)[nH]n3)nc(Sc3ccc(Cl)c(Cl)c3)n2)CC1 :: 50 to 90%
CCc1nc(Nc2cc(-c3ccco3)[nH]n2)nc(Sc2ccc(NC(=O)C3CC3)cc2)n1 :: 50 to 90%
CN1CCN(c2nc(Nc3cc(-c4ccco4)[nH]n3)nc(N(C)c3ccccc3)n2)CC1 :: > 90%

Tell me measured inhibition at 1 µM for `CN1CCN(c2nc(Nc3cc(-c4ccco4)[nH]n3)nc(Sc3ccc(C(F)(F)F)cc3)n2)CC1` please.
50 to 90%

State its inhibition at 1 µM for this compound: `COc1ccc(Sc2nc(Nc3cc(-c4ccco4)[nH]n3)nc(N3CCN(C)CC3)n2)cc1`
> 90%

Name the recorded inhibition at 1 µM of the item `CN1CCN(c2nc(Nc3cc(-c4ccco4)[nH]n3)nc(Sc3ccc(N)cc3)n2)CC1` in your answer.
> 90%

###

Target Desc: Aurora-A kinase (Homo sapiens, UniProt O14965)
Construct: purchased Millipore (KinaseProfiler Service); also Reaction Biology Corp. (Kinase HotSpot)
Sequence (O14965 whole entry): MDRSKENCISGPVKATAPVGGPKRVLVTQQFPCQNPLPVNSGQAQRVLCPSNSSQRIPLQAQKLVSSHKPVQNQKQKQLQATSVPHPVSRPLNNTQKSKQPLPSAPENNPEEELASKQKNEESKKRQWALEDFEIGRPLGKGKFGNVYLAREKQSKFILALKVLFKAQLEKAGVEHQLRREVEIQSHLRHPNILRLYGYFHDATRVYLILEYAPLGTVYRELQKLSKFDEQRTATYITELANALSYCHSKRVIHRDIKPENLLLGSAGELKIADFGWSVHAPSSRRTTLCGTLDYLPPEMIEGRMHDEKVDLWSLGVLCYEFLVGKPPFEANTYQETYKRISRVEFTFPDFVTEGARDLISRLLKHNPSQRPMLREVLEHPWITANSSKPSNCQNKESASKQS
Assay Summary: Aurora-A kinase assay (KinaseProfiler / Kinase Hotspot)
Type: biochemical
Condition Info: read-out: % Inhibition Auroro-A
Assay Readout: inhibition at 1 µM

# count of solved cases: 6
CN1CCN(c2nc(Nc3cc(-c4ccco4)[nH]n3)nc(Sc3ccc(OC(F)(F)F)cc3)n2)CC1 :: < 50%
CN1CCN(c2nc(Nc3cc(-c4ccco4)[nH]n3)nc(Oc3ccccc3)n2)CC1 :: 50 to 90%
CN1CCN(c2nc(Nc3cc(-c4ccco4)[nH]n3)nc(Sc3ccccc3)n2)CC1 :: 50 to 90%
CN1CCN(c2nc(Nc3cc(-c4ccccc4)[nH]n3)nc(Sc3ccc(NC(=O)C4CC4)cc3)n2)CC1 :: < 50%
CCc1nc(Nc2cc(-c3ccco3)[nH]n2)nc(Sc2ccc(NC(=O)C3CC3)cc2)n1 :: < 50%
CN1CCN(c2nc(Nc3cc(-c4ccco4)[nH]n3)nc(Sc3ccc(Cl)c(Cl)c3)n2)CC1 :: 50 to 90%

Write down the reported inhibition at 1 µM (system: Aurora-A kinase (Homo sapiens, UniProt O14965)) of `CN1CCN(c2nc(Nc3cc(-c4ccco4)[nH]n3)nc(Sc3ccc(NC(=O)C4CC4)cc3)n2)CC1`
50 to 90%

Report inhibition at 1 µM on Aurora-A kinase (Homo sapiens, UniProt O14965) for this entry: `CN1CCN(c2nc(Nc3cc(-c4ccco4)[nH]n3)nc(Sc3ccccc3Cl)n2)CC1`
50 to 90%

###

Target Desc: Aurora-A kinase (Homo sapiens, UniProt O14965)
Construct: purchased Millipore (KinaseProfiler Service); also Reaction Biology Corp. (Kinase HotSpot)
Assay Summary: Aurora-A kinase assay (KinaseProfiler / Kinase Hotspot)
Format: biochemical
Condition Info: read-out: % Inhibition Auroro-A
Listing of entries alongside the reported inhibition at 1 µM.

Worked examples follow.
CN1CCN(c2nc(Nc3cc(-c4ccco4)[nH]n3)nc(Sc3ccc(O)cc3)n2)CC1 :: 50 to 90%
CN1CCN(c2nc(Nc3ncc(-c4ccccc4)s3)nc(Sc3ccccc3)n2)CC1 :: < 50%
CN1CCN(c2nc(Nc3cc(-c4ccco4)[nH]n3)nc(Sc3cccc(Cl)c3)n2)CC1 :: 50 to 90%

Check the records and state inhibition at 1 µM for `CN1CCN(c2nc(Nc3cc(-c4ccco4)[nH]n3)nc(Sc3ccc(N)cc3)n2)CC1`
50 to 90%

Let me know recorded inhibition at 1 µM for `CN1CCN(c2nc(Nc3cc(-c4ccco4)[nH]n3)nc(Sc3ccc(Cl)cc3)n2)CC1` , thanks.
50 to 90%

State its inhibition at 1 µM for this compound: `COc1ccc(Sc2nc(Nc3cc(-c4ccco4)[nH]n3)nc(N3CCN(C)CC3)n2)cc1`
50 to 90%

###

Target Desc: Ret kinase (Homo sapiens, UniProt P07949)
Construct: purchased Millipore (KinaseProfiler Service); also Reaction Biology Corp. (Kinase HotSpot)
Assay Summary: Ret kinase assay (KinaseProfiler / Kinase Hotspot)
Assay type: biochemical
Collected inhibition at 1 µM values appear next to each entry.

CN1CCN(c2nc(Nc3cc(-c4ccco4)[nH]n3)nc(Sc3ccc(Cl)cc3)n2)CC1 :: 50 to 90%
CN1CCN(c2nc(Nc3cc(-c4ccco4)[nH]n3)nc(Sc3cccc(NC(=O)C4CC4)c3)n2)CC1 :: > 90%
CN1CCN(c2nc(Nc3cc(-c4ccco4)[nH]n3)nc(Sc3ccc(NC(=O)C4CC4)cc3)n2)CC1 :: 50 to 90%
CN1CCN(c2nc(Nc3cc(-c4cccs4)[nH]n3)nc(Sc3ccc(NC(=O)C4CC4)cc3)n2)CC1 :: > 90%

We now examine a further compound.
Answer with the recorded inhibition at 1 µM of `CN1CCN(c2nc(Nc3cc(-c4ccco4)[nH]n3)nc(Sc3ccc(O)cc3)n2)CC1` only.
> 90%
